molecular target: Melanocortin receptor 3 (Mus musculus); test: Activity at mouse MC3R expressed in HEK293 cells assessed as cAMP accumulation by CRE/beta-galactosidase reporter gene assay
Sequence (P33033 whole entry): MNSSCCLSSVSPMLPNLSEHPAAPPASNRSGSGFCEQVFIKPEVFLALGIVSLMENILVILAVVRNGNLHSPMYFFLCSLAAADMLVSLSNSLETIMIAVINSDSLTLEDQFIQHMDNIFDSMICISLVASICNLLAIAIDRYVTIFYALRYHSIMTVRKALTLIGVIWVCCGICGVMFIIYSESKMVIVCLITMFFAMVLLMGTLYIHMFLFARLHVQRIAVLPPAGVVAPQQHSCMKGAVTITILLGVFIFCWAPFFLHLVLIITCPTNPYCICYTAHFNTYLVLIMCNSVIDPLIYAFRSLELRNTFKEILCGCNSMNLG
measured-quantity: pEC50
Reminder that pEC50 is minus the log10 of a molar concentration.

{"columns": ["smiles-text", "measured-quantity", "assay-result"],
 "data": [
  ["CCCCCC[C@H](NC(=O)[C@H](Cc1c[nH]c2ccccc12)NC(=O)[C@H](CCCNC(=N)N)NC(=O)[C@@H](Cc1ccccc1)NC(=O)[C@H](Cc1cnc[nH]1)NC(=O)[C@H](CN=[N+]=[N-])NC(=O)[C@H](CCCC)NC(C)=O)C(N)=O", "pEC50", 8.88]
]}

q: GET /values?readout=pEC50&item= CCCC[C@H](NC(C)=O)C(=O)N[C@H]1CCc2cn(nn2)CC[C@@H](C(N)=O)NC(=O)[C@H](Cc2c[nH]c3ccccc23)NC(=O)[C@H](CCCNC(=N)N)NC(=O)[C@@H](Cc2ccccc2)NC(=O)[C@H](Cc2cnc[nH]2)NC1=O
a: 9.20

Attribution: ChEMBL document CHEMBL3352363
